biological target: F508delCFTR (Homo sapiens, UniProt P13569, DEL508-508); construct: expressed in transfected cells; host or cells: CFBE41o- human lung-derived epithelial cells (CFBE4lo-F508delCFTR-HRP), doxycycline-inducible; assay: Cell Surface Expression-Horse Radish Peroxidase (CSE-HRP) Assay; format: cell-based; settings: test compound without co-corrector; read-out: EC50 (without co-corrector)
Sequence (P13569 with tags, fused parts or gaps DEL508-508): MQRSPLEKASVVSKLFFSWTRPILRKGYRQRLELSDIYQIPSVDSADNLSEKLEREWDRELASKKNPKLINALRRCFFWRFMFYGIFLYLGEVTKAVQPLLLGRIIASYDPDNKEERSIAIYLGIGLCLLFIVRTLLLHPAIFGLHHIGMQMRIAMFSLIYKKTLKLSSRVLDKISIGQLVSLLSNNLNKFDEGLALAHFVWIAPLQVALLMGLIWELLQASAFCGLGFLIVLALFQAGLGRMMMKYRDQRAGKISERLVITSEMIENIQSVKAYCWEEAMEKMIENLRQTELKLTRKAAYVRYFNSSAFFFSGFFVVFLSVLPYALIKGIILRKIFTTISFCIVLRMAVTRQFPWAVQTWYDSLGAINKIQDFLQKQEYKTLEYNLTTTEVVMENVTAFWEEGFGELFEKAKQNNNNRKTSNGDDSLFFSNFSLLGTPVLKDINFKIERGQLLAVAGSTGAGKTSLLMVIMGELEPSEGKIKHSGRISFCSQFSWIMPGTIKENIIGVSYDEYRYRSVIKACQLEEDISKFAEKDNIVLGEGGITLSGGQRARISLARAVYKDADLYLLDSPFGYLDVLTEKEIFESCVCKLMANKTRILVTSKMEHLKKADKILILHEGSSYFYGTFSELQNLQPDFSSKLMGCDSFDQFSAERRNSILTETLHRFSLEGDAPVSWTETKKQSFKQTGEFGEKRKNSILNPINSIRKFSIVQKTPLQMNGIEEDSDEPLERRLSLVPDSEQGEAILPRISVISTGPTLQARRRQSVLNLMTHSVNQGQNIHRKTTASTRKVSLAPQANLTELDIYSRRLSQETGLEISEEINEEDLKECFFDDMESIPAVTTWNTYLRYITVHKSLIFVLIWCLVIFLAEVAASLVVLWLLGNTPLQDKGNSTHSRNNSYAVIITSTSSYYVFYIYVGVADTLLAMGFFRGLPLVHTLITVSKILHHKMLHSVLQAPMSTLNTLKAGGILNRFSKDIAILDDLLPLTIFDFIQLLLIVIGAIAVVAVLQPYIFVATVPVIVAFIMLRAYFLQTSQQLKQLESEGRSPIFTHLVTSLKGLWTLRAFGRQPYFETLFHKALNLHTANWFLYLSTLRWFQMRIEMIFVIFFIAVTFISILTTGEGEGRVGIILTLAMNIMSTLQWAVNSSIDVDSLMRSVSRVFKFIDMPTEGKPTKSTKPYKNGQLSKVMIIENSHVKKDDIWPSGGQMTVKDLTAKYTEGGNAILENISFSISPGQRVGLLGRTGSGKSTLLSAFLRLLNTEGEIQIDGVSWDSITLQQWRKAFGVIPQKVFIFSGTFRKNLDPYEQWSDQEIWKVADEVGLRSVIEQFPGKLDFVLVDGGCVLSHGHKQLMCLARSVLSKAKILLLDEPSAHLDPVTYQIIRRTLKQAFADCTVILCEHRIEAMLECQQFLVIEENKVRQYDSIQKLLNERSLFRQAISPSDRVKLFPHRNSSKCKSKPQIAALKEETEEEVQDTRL
measuredAttribute: EC50

Consider the worked cases shown below.
- COc1ccc(OC(F)(F)F)cc1CN[C@H]1[C@H](C(C)(C)C)[C@@H](C(=O)O)N(C(=O)OC(C)C)[C@H]1c1ccccc1 [II-523]: 1 to 10 µM
- COc1ccc(C2(C)CCC2)cc1CN[C@H]1[C@H](C(C)(C)C)[C@@H](C(=O)O)N(C(=O)OC(C)C)[C@H]1c1ccccc1 [II-537]: 1 to 10 µM

For the next question, use this compound.
## Task Any idea what its EC50 is? The compound is COc1ncc(C(F)(F)F)cc1CN[C@H]1[C@H](C(C)(C)C)[C@@H](C(=O)O)N(C(=O)[C@@H]2OCC[C@@H]2Cn2cccn2)[C@H]1c1ccccc1 [III-200]
## Result > 10 µM
